tested on: THRa:RXRa (NR concentration 90 nM, RXRa partner concentration 90 nM); experiment: PBM binding z-score (relative to random genomic background probes); higher = stronger binding; sequences stand for … in GC…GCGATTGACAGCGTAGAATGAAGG
MEASUREMENT_KIND: PBM binding z-score
Response field accepts a number only; no unit should be typed.

Incoming: Endpoint output: PBM binding z-score of ACTATTAGCTGAGACGAGGGCAACCGATAGGTTG . Value?
Outgoing: 0.992

Incoming: Given TCATATAGGTAAATGGTAGGTGAAAGTCCGATCT , state its recorded PBM binding z-score.
Outgoing: 0.858

Incoming: GET /values?readout=PBM binding z-score&item= AGAACGAGGGCACGCTGAGCTGATAGCAGAGTAG
Outgoing: 1.39

Incoming: Which PBM binding z-score reading was recorded for the sequence TGTCAAACTTCAAAGGTAACGTAAGTATCCACAC ?
Outgoing: 1.1

Incoming: Fill blank: measured PBM binding z-score of the sequence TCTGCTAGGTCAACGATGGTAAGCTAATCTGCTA is ____.
Outgoing: 2.62

Incoming: For the sequence shown here, AGAATGAGGTTTTACGTAGATCAGGGAAGAAAGT , give the reported PBM binding z-score.
Outgoing: 0.3

Incoming: I have this sequence here, CCTATTAGTTTACCATAAGGGCAACCGAAGCTCG , and I need its recorded PBM binding z-score.
Outgoing: 2.06

Incoming: Give its PBM binding z-score value. Item: TCTTGTAGATGAAAGGTTAAGAAAGCCGAAGCCT
Outgoing: 0.806

Incoming: Dear colleague, I am looking for the recorded PBM binding z-score of the following sequence: CCAACTAGGTCAGAACAGGACAGTGAAGGATGAT
Outgoing: 3.67

Incoming: Sample CCTTACGGTTCAAGGTTATAGCACGGGTGGTACG — what was its PBM binding z-score?
Outgoing: 2.15

Incoming: Item under review: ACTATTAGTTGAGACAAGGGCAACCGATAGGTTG . Reported PBM binding z-score?
Outgoing: 1.96

Incoming: Entry under review: CCGACTGAGGCAAAGGTTACCATACTCAGTACGA . Reported PBM binding z-score?
Outgoing: 1.54

Incoming: Which value of PBM binding z-score has been reported for GCTAGTTGGTCAGTAAAAGGTCCCACACCGGTCG in the records?
Outgoing: -0.281

Incoming: What PBM binding z-score value was documented for this sequence, CGCGAAAGGTCGTGCTCAGGTGAGTATACCAAAC ?
Outgoing: 4.17

Incoming: # get_value(readout='PBM binding z-score', item= AGTGAAAGTTCATCTAGGTAACGTAAGATATGCT )
Outgoing: 3

Incoming: Look up PBM binding z-score for this sequence: TAGCCTAGGTCCGATCGGGCCAGTATACGCTATA
Outgoing: 0.334

Incoming: Item under review: CCTACTGGGCCATCAGATCATTGATATCAACGTT . Reported PBM binding z-score?
Outgoing: -0.114

Incoming: Given the sequence TCTTGTAGATCAAGCAGGCTAAGAAAGCCTGAGT , what is its reported PBM binding z-score?
Outgoing: -0.805

Incoming: Report PBM binding z-score for ACTAGCAGACCAAGGGTCACTCAAGATTAGTCCG please.
Outgoing: 2.42

Incoming: If you can, please state the reported PBM binding z-score value of ACTATTAGTTGACTTAGGCCAACCGATACGACGC .
Outgoing: 0.898

Incoming: Which PBM binding z-score value is on record for GCTGGCAGGCCATTTGGGTCACTCAATGACGGGC ?
Outgoing: 1.86

Incoming: I'd like to know its PBM binding z-score. The sequence in question is TGTCAAAGTTCAAAGGCAACGTAAGTATCCACAC
Outgoing: 2.12

Incoming: PBM binding z-score for CGTCCAAGGTCAAAGGTCGGTGAAGAGATGACGG ?
Outgoing: 4.24
